System: MDA-MB-231
Assay: cells
Conditions: Homo sapiens, MDA-MB-231, 72 h, read-out: INH
Description: Antitumor activity against human MDA-MB-231 cells assessed as inhibition of cell viability by measuring inhibition rate at 20 uM measured after 72 hrs by CCK-8 assay relative to control
ATTRIBUTE_MEASURED: inhibition at 20 µM (%)
Give bare numbers, in %.

Known inhibition at 20 µM results, listed for orientation:
[[record]]
compound = "CCOC(=O)C1CCCN(C(=O)c2nn(-c3ccc(C)c(C)c3)c(=O)n(Cc3cccc(F)c3)c2=O)C1 (stereo not drawn)"
target_under_test = "MDA-MB-231"
attribute_measured = "inhibition at 20 µM"
measurement_unit = "%"
reported = 98.4

[[record]]
compound = "Cc1ccc(-n2nc(C(=O)N3CCCCC3)c(=O)n(Cc3ccccc3F)c2=O)cc1C"
target_under_test = "MDA-MB-231"
attribute_measured = "inhibition at 20 µM"
measurement_unit = "%"
reported = 99.2


Lab note: each compound below needs its inhibition at 20 µM filled in.
1. CCOC(=O)N1CCN(C(=O)c2nn(-c3ccc(C)c(C)c3)c(=O)n(Cc3cccc(F)c3)c2=O)CC1
2. Cc1ccc(-n2nc(C(=O)N(C)C)c(=O)n(Cc3ccccc3)c2=O)cc1C
3. Cc1ccc(-n2nc(C#N)c(=O)n(Cc3ccccn3)c2=O)cc1C

Result:
1: 95.5; 2: 89.8; 3: -4.94

###

Exercise: state measured solubility kinetic for each of the compounds provided.
Test: Kinetic solubility of the compound in PBS buffer at pH 7.4 measured by HPLC analysis
Numbers only, in µM.

[[record]]
compound = "Cc1ccc(-n2nc(C(=O)N3CCC(C(=O)OC(C)(C)C)CC3)c(=O)n(Cc3cccc(F)c3)c2=O)cc1C"
measurement_unit = "µM"
reported = 19

[[record]]
compound = "Cc1ccc(-n2nc(C(=O)N3CCC[C@@H](NC(=O)OC(C)(C)C)C3)c(=O)n(Cc3cccc(F)c3)c2=O)cc1C"
measurement_unit = "µM"
reported = 129

[[record]]
compound = "Cc1ccc(-n2nc(C(=O)N3CCCN(C(=O)OC(C)(C)C)CC3)c(=O)n(Cc3cccc(F)c3)c2=O)cc1C"
measurement_unit = "µM"
reported = 41

[[record]]
compound = "Cc1ccc(-n2nc(C(=O)N3CCCCC3)c(=O)n(Cc3ccccc3F)c2=O)cc1C"
measurement_unit = "µM"
reported = 20

[[record]]
compound = "Cc1ccc(-n2nc(C(=O)N3CCC(F)CC3)c(=O)n(Cc3ccccc3)c2=O)cc1C"
measurement_unit = "µM"
reported = 57


Lab note: each compound below needs its solubility kinetic filled in.
1. Cc1ccc(-n2nc(C(=O)N3CCCC(CNC(=O)OC(C)(C)C)C3)c(=O)n(Cc3cccc(F)c3)c2=O)cc1C (configuration not stated)
2. Cc1ccc(-n2nc(C(=O)Nc3ccc(CN4CCOCC4)cc3)c(=O)n(Cc3ccccc3)c2=O)cc1C

Result:
1. 44
2. 15

###

System: MDA-MB-231
Assay: cells
Settings: Homo sapiens, MDA-MB-231, 72 h, read-out: INH
// false strictly below 70% in inhibition at 20 µM; true otherwise

[[record]]
smiles_structure = "Cc1ccc(-n2nc(C(=O)N3CC3)c(=O)n(Cc3ccccc3)c2=O)cc1C"
target_under_test = "MDA-MB-231"
class_assignment = "true"

[[record]]
smiles_structure = "Cc1ccc(-n2nc(C(=O)N3CCN(C(=O)OC(C)(C)C)CC3)c(=O)n(Cc3cccc(F)c3)c2=O)cc1C"
target_under_test = "MDA-MB-231"
class_assignment = "true"

[[record]]
smiles_structure = "Cc1ccc(-n2nc(C(=O)N3CC(NC(=O)OC(C)(C)C)C3)c(=O)n(Cc3cccc(F)c3)c2=O)cc1C"
target_under_test = "MDA-MB-231"
class_assignment = "true"


Q: Assess whether reported inhibition at 20 µM for COc1ccccc1CNC(=O)c1nn(-c2ccc(C)c(C)c2)c(=O)n(Cc2ccccc2)c1=O sits at 70% or higher.
Result: false

Q: And Cc1ccc(-n2nc(C(=O)N3CCC3)c(=O)n(Cc3ccccc3)c2=O)cc1C ?
Result: true
